Every entry's value here was drawn from paper PMC12392461.

tested on: ERα-UAS-bla GripTite cells; conditions: Table S11; TKcytotoxicity-Ratio
Listing of recorded TKcytotoxicity by entry.
readoutLabel: TKcytotoxicity

CC(C)c1cc(C(C)(C)c2ccc(O)c(C(C)C)c2)ccc1O	0.67
CC(c1ccccc1)(c1ccc(O)cc1)c1ccc(O)cc1	0.76
CC(C)(c1ccc(O)cc1)c1ccc(O)cc1 [BPA, 4,4'-(Propane-2,2-diyl)diphenol, reference compound]	0.63

---

Listing of recorded REPBPA by entry.
test system: ERα; test: Literature ERα reporter gene assays (comparison); type: cell-based; conditions: relative estrogenic potency vs BPA; ref Kojima et al 2019
readoutLabel: REPBPA

CCC(C)(c1ccc(O)cc1)c1ccc(O)cc1	3.17E+00
Oc1ccc(Cc2ccc(O)cc2)cc1 [BPF, Bis(4-hydroxyphenyl)methane]	6.64E-01
Oc1ccc(C(c2ccc(O)cc2)(C(F)(F)F)C(F)(F)F)cc1	8.49E-01
CC(C)(c1ccc(O)cc1)c1ccc(O)cc1 [BPA, 4,4'-(Propane-2,2-diyl)diphenol, reference compound]	1.00E+00
CC(c1ccccc1)(c1ccc(O)cc1)c1ccc(O)cc1	2.52E-01
O=S(=O)(c1ccc(O)cc1)c1ccc(O)cc1	4.29E-02

---

molecular target: Estrogen Receptor ERα (Homo sapiens, UniProt P03372); experiment: cell-based; conditions: input of the ToxPi score, values up to 1.00
readoutLabel: log(1/EC10) ERα

CC(C)c1cc(C(C)(C)c2ccc(O)c(C(C)C)c2)ccc1O	0.77
CC1(C)[C@H](O)C(C)(C)[C@H]1O	0.32
CCC(C)(c1ccc(O)cc1)c1ccc(O)cc1	0.88
CC(C)(c1ccc(O)cc1)c1ccc(O)cc1 [BPA, 4,4'-(Propane-2,2-diyl)diphenol, reference compound]	0.82
Oc1ccc(Cc2ccc(O)cc2)cc1 [BPF, Bis(4-hydroxyphenyl)methane]	0.77

---

test system: H4IIe (AhR CALUX); settings: Bioassay AhR; cytotoxicity; dosing range all
readoutLabel: IC10, linear transformed

CC(c1ccccc1)(c1ccc(O)cc1)c1ccc(O)cc1	9.59E-05
CCC(C)(c1ccc(O)cc1)c1ccc(O)cc1	8.31E-05
C=CCOc1ccc(S(=O)(=O)c2ccc(O)cc2)cc1 [BPS-MAE, 4-[[4-(Allyloxy)phenyl]sulfonyl]phenol]	8.61E-05
Cc1cc(Cc2cc(C)c(O)c(C)c2)cc(C)c1O [TMBPF, Bis(3,5-dimethyl-4-hydroxyphenyl)methane]	1.05E-04

---

Listing of recorded EC10 by entry.
Test system: Mitochondrial Membrane Potential
Assay: cells
Conditions: Arec32, read-out: EC10, MMP (M)
From the text: All bioassay media components and the ERα-UAS-bla GripTite and PPARγ-UAS-bla cells were obtained from Thermo Fisher Scientific (Waltham, MA, USA). AREc32 reporter gene cells based on MCF7 were provided by C. Roland Wolf (Cancer Research UK); AhR CALUX cells (H4L7.5c2 derived from H4IIe) were provided by Michael Denison (UC Davis, USA); and SH-SY5Y cells were purchased from Sigma-Aldrich. […]
readoutLabel: EC10

O=S(=O)(c1ccc(O)cc1)c1ccccc1O [2,4-BPS, 2,4'-Dihydroxydiphenyl sulfone]	5.9e-05 M
C=CCOc1ccc(S(=O)(=O)c2ccc(O)cc2)cc1 [BPS-MAE, 4-[[4-(Allyloxy)phenyl]sulfonyl]phenol]	7.85e-05 M
CC(C)(c1ccc(O)c(-c2ccccc2)c1)c1ccc(O)c(-c2ccccc2)c1 [BPPH, 2,2-Bis(2-hydroxy-5-biphenylyl)propane]	1.96e-06 M
CC(C)(c1ccc(O)cc1)c1ccc(O)cc1 [BPA, 4,4'-(Propane-2,2-diyl)diphenol, reference compound]	2.8e-05 M

---

Target: Peroxisome proliferator-activated receptor γ (Homo sapiens, UniProt P37231)
Sequence (P37231 238-505 limits assumed): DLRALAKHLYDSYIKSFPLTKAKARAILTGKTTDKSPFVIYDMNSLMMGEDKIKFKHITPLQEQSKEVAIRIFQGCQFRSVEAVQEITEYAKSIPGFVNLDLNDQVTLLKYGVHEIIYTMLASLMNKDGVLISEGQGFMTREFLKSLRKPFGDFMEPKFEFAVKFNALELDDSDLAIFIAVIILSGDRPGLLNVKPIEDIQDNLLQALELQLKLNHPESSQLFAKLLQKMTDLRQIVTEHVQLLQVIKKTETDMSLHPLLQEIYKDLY
Assay: cell-based
Details: against baseline cytotoxicity
Source text: All bioassay media components and the ERα-UAS-bla GripTite and PPARγ-UAS-bla cells were obtained from Thermo Fisher Scientific (Waltham, MA, USA). AREc32 reporter gene cells based on MCF7 were provided by C. Roland Wolf (Cancer Research UK); AhR CALUX cells (H4L7.5c2 derived from H4IIe) were provided by Michael Denison (UC Davis, USA); and SH-SY5Y cells were purchased from Sigma-Aldrich. […]
Hi, to clarify the labels: T covers Specificity ratio (SRbaseline) SRPPARγ from 50 upward, F covers anything below 50.

CC(C)c1cc(C(C)(C)c2ccc(O)c(C(C)C)c2)ccc1O	F
Cc1ccc(S(=O)(=O)NC(=O)Nc2ccc(Cc3ccc(NC(=O)NS(=O)(=O)c4ccc(C)cc4)cc3)cc2)cc1	T
Cc1cc(Cc2cc(C)c(O)c(C)c2)cc(C)c1O [TMBPF, Bis(3,5-dimethyl-4-hydroxyphenyl)methane]	F
Cc1ccc(S(=O)(=O)NC(=O)Nc2cccc(OS(=O)(=O)c3ccc(C)cc3)c2)cc1	T
O=C(OCc1ccccc1)c1ccc(O)cc1 [BzPB, Benzyl 4-hydroxybenzoate]	F
CC(C)(c1ccc(O)c(-c2ccccc2)c1)c1ccc(O)c(-c2ccccc2)c1 [BPPH, 2,2-Bis(2-hydroxy-5-biphenylyl)propane]	F

---

experiment: Acidity constant (pKa) measurement, Sirius T3 UV-metric, and speciation at pH 7.4; conditions: pH 7.4; from experimental pKa
readoutLabel: αneutral % (fraction of neutral species) (%)

CC1(C)[C@H](O)C(C)(C)[C@H]1O	100
CC(c1ccc(O)cc1)c1ccc(O)cc1	98
Cc1ccc(S(=O)(=O)NC(=O)Nc2ccc(Cc3ccc(NC(=O)NS(=O)(=O)c4ccc(C)cc4)cc3)cc2)cc1	0.0007
CC(C)Oc1ccc(S(=O)(=O)c2ccc(O)cc2)cc1	61
CC(C)(c1cc(Cl)c(O)c(Cl)c1)c1cc(Cl)c(O)c(Cl)c1	29
CC(C)c1cc(C(C)(C)c2ccc(O)c(C(C)C)c2)ccc1O	100
Oc1ccc(Sc2ccc(O)cc2)cc1	96
COC(=O)C(c1ccc(O)cc1)c1ccc(O)cc1 [Bz, Methyl bis(4-hydroxyphenyl)acetate]	71
O=S(=O)(c1ccc(O)cc1)c1ccc(OCc2ccccc2)cc1 [BPS-MPE, 4-[4-(benzyloxy)benzenesulfonyl]phenol]	68
CC1(C)C(O)C(C)(C)C1O (racemic)	100
CC(C)(c1ccc(O)c(-c2ccccc2)c1)c1ccc(O)c(-c2ccccc2)c1 [BPPH, 2,2-Bis(2-hydroxy-5-biphenylyl)propane]	99
CC(C)(c1cc(Br)c(O)c(Br)c1)c1cc(Br)c(O)c(Br)c1	5
Oc1ccc(Cc2ccc(O)cc2)cc1 [BPF, Bis(4-hydroxyphenyl)methane]	99

---

Target: Estrogen Receptor ERα (Homo sapiens)
Sequence (P03372 311-547 limits assumed): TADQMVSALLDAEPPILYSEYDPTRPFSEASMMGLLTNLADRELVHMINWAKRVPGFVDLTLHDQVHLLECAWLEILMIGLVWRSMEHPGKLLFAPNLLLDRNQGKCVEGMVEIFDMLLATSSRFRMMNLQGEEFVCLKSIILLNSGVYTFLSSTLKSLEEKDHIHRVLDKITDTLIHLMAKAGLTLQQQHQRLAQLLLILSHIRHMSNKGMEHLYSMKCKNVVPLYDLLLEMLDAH
Assay: aCYP oxidation followed by ERα-UAS-bla GripTite assay (TK-Ratio of effect)
Format: cell-based
Settings: Table S10; ERα; after abiotic CYP catalyst; in M
Listing of recorded EC10, after oxidation by entry.
readoutLabel: EC10, after oxidation

Oc1ccc(Sc2ccc(O)cc2)cc1 [BPT, 4,4'-Thiodiphenol]	1.15E-06
Oc1ccc(Cc2ccc(O)cc2)cc1 [BPF, Bis(4-hydroxyphenyl)methane]	1.00E-06
CCC(C)(c1ccc(O)cc1)c1ccc(O)cc1 [BPB, 4,4'-(Butane-2,2-diyl)diphenol]	3.59E-07
O=C(OCc1ccccc1)c1ccc(O)cc1 [BzPB, Benzyl 4-hydroxybenzoate]	4.95E-06
CC(C)c1cc(C(C)(C)c2ccc(O)c(C(C)C)c2)ccc1O [BPG]	3.40E-06
COC(=O)C(c1ccc(O)cc1)c1ccc(O)cc1 [Bz, Methyl bis(4-hydroxyphenyl)acetate]	1.36E-06
O=S(=O)(c1ccc(O)cc1)c1ccc(O)cc1 [BPS, 4,4'-Sulfonyldiphenol]	1.48E-06
C=CCOc1ccc(S(=O)(=O)c2ccc(O)cc2)cc1 [BPS-MAE, 4-[[4-(Allyloxy)phenyl]sulfonyl]phenol]	1.28E-05
CC(C)(c1ccc(O)cc1)c1ccc(O)cc1 [BPA, 4,4'-(Propane-2,2-diyl)diphenol, reference compound]	4.48E-07

---

tested on: H4IIe (AhR CALUX); details: Bioassay AhR; cytotoxicity; dosing range all; log-logistic model fit
Listing of recorded logIC10 by entry.
readoutLabel: logIC10

Oc1ccc(Cc2ccc(O)cc2)cc1 [BPF, Bis(4-hydroxyphenyl)methane]	-3.53
CCC(C)(c1ccc(O)cc1)c1ccc(O)cc1	-4.08
Oc1ccc(C(c2ccc(O)cc2)(C(F)(F)F)C(F)(F)F)cc1	-4.40
Oc1ccc(Sc2ccc(O)cc2)cc1	-4.09

---

test system: MCF7 (ARE/MMP); details: Bioassay ARE; cytotoxicity; dosing range all; log-logistic model fit
readoutLabel: logIC10

CCC(C)(c1ccc(O)cc1)c1ccc(O)cc1	-4.43
CC(c1ccc(O)cc1)c1ccc(O)cc1	-4.10
CC(C)c1cc(C(C)(C)c2ccc(O)c(C(C)C)c2)ccc1O	-5.22
